Assay overview: nonselective calcium activators in parental CHO-K1 cells, primary screen, counter-screen for M1 PAM project, cell-based, Fluo-8 calcium fluorescence, full deck, 1536-well (AID 602247);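 also: peak over basal fluorescence ratio in a 140 s read after ATP addition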
Experimental conditions: parental CHO-K1, ATP EC20, Fluo-8 calcium fluorescence; at 3 µM; stronger effect = higher value; 0% at ATP EC20, 100% at ATP max
Screen size: about 360,000 compounds; about 80 (0.02%) were called active. For the sample, actives were picked, then their nearest neighbours and some compounds at random.
Measured quantity: activation

Example results:
- Molecule: "CCCCOc1ccc(C(=O)NCC(=O)OCC(=O)c2c(N)n(C)c(=O)n(C)c2=O)cc1"
  activation: "-1.27% (inactive)"
- Molecule: "CCOC(=O)C1(Cc2ccc(O)cc2)NC(c2ccccc2F)C2C(=O)N(C)C(=O)C21 (stereo not given)"
  activation: "24% (inactive)"
- Molecule: "O=C(CC(NCCN1CCOCC1)C(=O)O)Nc1cccc(Cl)c1 (stereo not given)"
  activation: "20.9% (inactive)"
- Molecule: "CC1(C(=O)NS(=O)(=O)c2cccs2)CCN1C(=O)Cc1ccc(-c2ccccc2)cc1 (stereo not given)"
  activation: "13% (inactive)"

In the following, a different molecule is considered.
Requested read-out: activation. Entry: CCOc1cc(/C=N/NC(=O)c2cc(-c3ccccc3)nc3ccccc23)ccc1O
40.7% (active)

* * *

Reported activation values are given for each entry in this list.
Assay overview: nonselective calcium activators in parental CHO-K1 cells, primary screen, counter-screen for M1 PAM project, cell-based, Fluo-8 calcium fluorescence, full deck, 1536-well (AID 602247);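 also: peak over basal fluorescence ratio in a 140 s read after ATP addition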
Experimental conditions: parental CHO-K1, ATP EC20, Fluo-8 calcium fluorescence; at 3 µM; stronger effect = higher value; 0% at ATP EC20, 100% at ATP max
Among all 360,000 compounds or so, about 80 (0.02%) were called active. Many of the other results were omitted from the sample, so actives are more common in it than they were.
Give your result in % as a bare value.

Example results:
- Molecule: "CCc1ccc(N2CC(C(=O)NC3=NCCS3)CC2=O)cc1 (stereo not given)"
  Measured quantity: "activation"
  Unit descriptor: "%"
  Value measured: -0.63
- Molecule: "O[C@H]1C[C@H](c2ccc(Cl)cc2)N(Cc2cccs2)C[C@@H]1n1cc(C2CC2)nn1"
  Measured quantity: "activation"
  Unit descriptor: "%"
  Value measured: 47.2
- Molecule: "Nc1scc(-c2ccncc2)c1Cl"
  Measured quantity: "activation"
  Unit descriptor: "%"
  Value measured: 13.6
- Molecule: "O=C(O)c1cccc2c1C(=O)N(C1CCCCC1)C2"
  Measured quantity: "activation"
  Unit descriptor: "%"
  Value measured: 12.5
- Molecule: "CCOc1ccc(NC(=S)N2CCC(N(C)CC3CCCO3)CC2)cc1 (stereo not given)"
  Measured quantity: "activation"
  Unit descriptor: "%"
  Value measured: 23.7

Requested read-out: activation. Entry: C/C(=N\NC(=O)COc1ccc(C)cc1[N+](=O)[O-])c1ccc2c(c1)OCCO2
4.27

Requested read-out: activation. Entry: CC(C)COc1ccc(C(=O)OCC(=O)NCCC2=CCCCC2)cc1
0.12

Requested read-out: activation. Entry: Cc1ccc(NC(=O)NC(=O)N(C2CCCCC2)S(=O)(=O)c2ccccc2)cc1
15.3

Requested read-out: activation. Entry: O=C(CN1C(=O)NC2(CCCC2)C1=O)Nc1cc(C(F)(F)F)ccc1N1CCOCC1
-14.5

Requested read-out: activation. Entry: C#CCCOC(=O)N1C2=NC(C(=O)OC)=C(C(=O)OC)[C@@H]3N(C)c4ccc(OC)cc4[C@]23C[C@H]1C(=O)OC
-12.8

* * *

Assay overview: nonselective calcium activators in parental CHO-K1 cells, primary screen, counter-screen for M1 PAM project, cell-based, Fluo-8 calcium fluorescence, full deck, 1536-well (AID 602247);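 also: peak over basal fluorescence ratio in a 140 s read after ATP addition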
Experimental conditions: parental CHO-K1, ATP EC20, Fluo-8 calcium fluorescence; at 3 µM; stronger effect = higher value; 0% at ATP EC20, 100% at ATP max
Screen size: about 360,000 compounds; about 80 (0.02%) were called active. The entries come from a sample that favours actives as a whole.
Reported activation values are given for each entry in this list.
Give your result in % as a bare value.

- Molecule: "COC(=O)Cn1cnc2scc(-c3ccc(C)c(C)c3)c2c1=O"
  activation / %: 12.6

Requested read-out: activation. Entry: Cc1ccc(Cn2cc(C(=O)NN)c(=O)c3ccc(F)cc32)cc1
-28.1

Requested read-out: activation. Entry: OCC(O)C1OCOC(C(O)CO)C1O (centres undefined)
-2.45

Requested read-out: activation. Entry: Fc1cccc(Cc2noc(CN3CCN(c4cnccn4)CC3)n2)c1
10.6

Requested read-out: activation. Entry: O=C(/C=N/O)Nc1ccccc1
6.67

Requested read-out: activation. Entry: C/C(=N/NC(=O)CSc1ccccn1)c1ccc([N+](=O)[O-])cc1
22.4

Requested read-out: activation. Entry: CCOc1cc(C2C(C(=O)OC(C)C)=C(C)NC3=C2C(=O)CCC3)cc([N+](=O)[O-])c1O (centres undefined)
14.9

* * *

Reported activation values are given for each entry in this list.
Assay overview: nonselective calcium activators in parental CHO-K1 cells, primary screen, counter-screen for M1 PAM project, cell-based, Fluo-8 calcium fluorescence, full deck, 1536-well (AID 602247);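 also: peak over basal fluorescence ratio in a 140 s read after ATP addition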
Experimental conditions: parental CHO-K1, ATP EC20, Fluo-8 calcium fluorescence; at 3 µM; stronger effect = higher value; 0% at ATP EC20, 100% at ATP max
About 80 (0.02%) of roughly 360,000 compounds were called active. The sample as a whole holds a higher share of actives than the screen did.
Give your result in % as a bare value.

- Compound: "O=C(N[C@H]1C/C=C\\C(c2cccc(F)c2)N(Cc2ccccc2)C(=O)C1)OCC1c2ccccc2-c2ccccc21 (some centres undefined)"
  Unit descriptor: "%"
  Value measured: -2.24
- Compound: "O=C(CSCc1ccccc1Cl)NNC(=O)c1ccccc1"
  Unit descriptor: "%"
  Value measured: 2.85
- Compound: "CC(C)C[C@@H]1COc2cc(N3CCC[C@@H]3CO)ccc2S(=O)(=O)N1"
  Unit descriptor: "%"
  Value measured: 4.5
- Compound: "CN1CCN(c2cc(=O)n(-c3ccc(Cl)cc3)c(=O)[nH]2)CC1"
  Unit descriptor: "%"
  Value measured: 1.64

Requested read-out: activation. Entry: O=C1c2ccccc2C(=O)N1CCc1nn[nH]n1
16.6

Requested read-out: activation. Entry: C=CCn1c(COc2ccccc2F)nnc1SCC(=O)N1CC(=O)Nc2ccccc21
15.7

Requested read-out: activation. Entry: O=C(CSc1nnnn1-c1ccc2c(c1)CCC2)Nc1ccc2c(c1)OCCO2
-11.2

* * *

Assay overview: nonselective calcium activators in parental CHO-K1 cells, primary screen, counter-screen for M1 PAM project, cell-based, Fluo-8 calcium fluorescence, full deck, 1536-well (AID 602247);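 also: peak over basal fluorescence ratio in a 140 s read after ATP addition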
Experimental conditions: parental CHO-K1, ATP EC20, Fluo-8 calcium fluorescence; at 3 µM; stronger effect = higher value; 0% at ATP EC20, 100% at ATP max
Screen size: about 360,000 compounds; about 80 (0.02%) were called active. The entries come from a sample that favours actives as a whole.
Measured quantity: activation (%)
Give your result in % as a bare value.

Example results:
- Compound: "Cc1ccc(NC(=O)CN(C)C(=O)c2ccc(Br)o2)cc1"
  Value measured: -2.97
- Compound: "COc1ccc(OC)c(NC(=O)CSc2nc3cccnc3n2C)c1"
  Value measured: 9.99

Requested read-out: activation. Entry: CCOC(=O)c1ccc(N2C(=O)CC(Sc3nc(O)c(CC)c(=O)[nH]3)C2=O)cc1 (configuration not stated)
11.8

Requested read-out: activation. Entry: Cc1ccc(C)c(NC(=O)c2cc(-c3cc(C)cc(C)c3O)n[nH]2)c1
-21.6

Requested read-out: activation. Entry: CCc1ccc(OCC(=O)NCC(c2ccc(Cl)cc2)N2CCCCC2)cc1 (configuration not stated)
11

Requested read-out: activation. Entry: CC(CC(=O)N1CCN(S(=O)(=O)c2ccccc2)CC1)n1cncn1 (configuration not stated)
23.5

Requested read-out: activation. Entry: COc1ccc(N2CC(C(=O)NCCS(=O)(=O)N3CCN(c4ccccc4)CC3)CC2=O)cc1 (configuration not stated)
-1.18

Requested read-out: activation. Entry: COc1cccc(-c2nc3n(n2)C(c2ccccc2Cl)C(C(N)=O)=C(C)N3)c1 (configuration not stated)
3.28

Requested read-out: activation. Entry: Cc1cccc(N2C(=O)C3C(c4ccccc4)OC4(C(=O)c5ccccc5C4=O)C3C2=O)c1 (configuration not stated)
10.9

* * *

Reported activation values are given for each entry in this list.
Assay overview: nonselective calcium activators in parental CHO-K1 cells, primary screen, counter-screen for M1 PAM project, cell-based, Fluo-8 calcium fluorescence, full deck, 1536-well (AID 602247);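 also: peak over basal fluorescence ratio in a 140 s read after ATP addition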
Experimental conditions: parental CHO-K1, ATP EC20, Fluo-8 calcium fluorescence; at 3 µM; stronger effect = higher value; 0% at ATP EC20, 100% at ATP max
Out of some 360,000 compounds screened, about 80 (0.02%) were called active. What follows is part of a selection rich in actives, with near analogues and random picks from the rest.
Give your result in % as a bare value.

Example results:
- Compound: "COc1ccc(S(=O)(=O)N2CN(CCc3ccc(OC)c(OC)c3)c3nc4ccccc4nc32)cc1"
  activation [%]: 1.88
- Compound: "Cc1ccc(C)c(OCCC(=O)Nc2cccc(S(=O)(=O)N3CCCC3)c2)c1"
  activation [%]: 10.7
- Compound: "COc1ccc(-n2ncc3c2CC(C)(C)CC3NC(=O)CCc2c(C)noc2C)cc1 (configuration not stated)"
  activation [%]: -2.15
- Compound: "Cc1c(C#N)c2ncn(CC#N)c(=O)c2n1-c1ccccc1"
  activation [%]: 10.7
- Compound: "O=C(CCS(=O)(=O)c1ccccc1Cl)Nc1ccc(S(=O)(=O)Nc2ncccn2)cc1"
  activation [%]: 7.81

Requested read-out: activation. Entry: CC(=O)O[C@H]1CC[C@@]2(C)[C@@H](CC[C@@H]3[C@@H]2CC[C@]2(C)[C@@H](C(C)(C)O)C[C@@H]32)C1
4

Requested read-out: activation. Entry: OC1CCCN(c2ncnc3c2nnn3Cc2c(F)cccc2Cl)C1 (configuration not stated)
20.4

Requested read-out: activation. Entry: CCOC(=O)c1c(C)n(C)c2ccc(OC)c(NC(=O)CN3CCC4(CC3)OCCO4)c12
7.82

Requested read-out: activation. Entry: CCn1c(SCC(=O)Nc2ccc(OC)c(OC)c2)nnc1-c1c[nH]c2ccccc12
22.7

Requested read-out: activation. Entry: Cc1ccc(-c2ccc(C3=CC(=O)CC(C)(C)C3=O)cc2)cc1
8.88

Requested read-out: activation. Entry: COc1ccc(S(=O)(=O)N2CCOCC2)cc1NC(=O)CSc1ncnc2ccccc12
-10.6

Requested read-out: activation. Entry: Cc1nc2ccccn2c(=O)c1NC(=O)c1ccc(Br)o1
7.36

Requested read-out: activation. Entry: Cc1cc(C)n(-c2nnc(C)n2NC(=O)c2cccc(Cl)c2)n1
9.43

Requested read-out: activation. Entry: Cc1ccc(NC(=O)C2(N3CCC3=O)CCCCC2)cc1
30.7

Requested read-out: activation. Entry: Cc1ccc(C)c(NC(=O)C2CC(=O)N(C(C)C)C2)c1 (configuration not stated)
12.2

Requested read-out: activation. Entry: Cc1ccc(NS(=O)(=O)c2c(C)[nH]c(=O)[nH]c2=O)cc1C
7.33

Requested read-out: activation. Entry: CCOc1ccc(S(=O)(=O)N(CC(=O)O)c2ccccc2)cc1
12.9
